study_target: HLA-A*02:01
assay_info: IEDB peptide-MHC binding, purified MHC/competitive/radioactivity; filed as Kd, often an IC50 or EC50 that approximates it; bounds were set here for any values at or beyond the usual limits of such assays
cond: source organism: dengue virus type 4
readout_label: Kd (nM)
Give bare numbers, in nM.

HLA-A*02:01 Kd of KLTDWDFVV is 61

* * *

study_target: HLA-A*03:01
assay_info: IEDB peptide-MHC binding, purified MHC/direct/fluorescence; filed as Kd, often an IC50 or EC50 that approximates it; bounds were set here for any values at or beyond the usual limits of such assays
cond: source organism: Escherichia coli O157:H7
readout_label: Kd

construct_sequence	Kd
SMYQLMITI	≥ 20 µM
RFDEAIINY	≥ 20 µM
MIYMGLWLK	0.119 µM

Now look at this entry.
Per the records, this sequence ( AQRPAKYSY ) has Kd equal to ≥ 20 µM
